Entry source: patent US20190134153A1

Reported % activity values for a set of sequences
assayed-target: Flt3(h) (Homo sapiens)
method: Kinase Profiling Assay
Assay type: biochemical
cond: 100 μM
Write it as a number; the unit % goes unstated.

Returns the measured % activity for the input sequence. Input: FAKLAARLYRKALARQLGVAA [MMI-0300]
84

Returns the measured % activity for the input sequence. Input: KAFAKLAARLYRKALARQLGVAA [MMI-0400]
18

Returns the measured % activity for the input sequence. Input: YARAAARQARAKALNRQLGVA [MMI-0200]
99

Returns the measured % activity for the input sequence. Input: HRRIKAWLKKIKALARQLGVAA [MMI-0500]
17
